Hello, the source for this data is patent US4000297A, in case you need it.

Assay: Acute toxicity (DL50) in the mouse
Type: in vivo
Conditions: in vivo, iv, iv (Table 2), read-out: DL50 iv
VALUE_TYPE: LD50 (mg/kg)

| MOLECULE | READOUT_UNITS | RESULT_VALUE |
| --- | --- | --- |
| O=C(N[C@@H](Cc1c[nH]c2ccccc12)C(=O)O)OCc1ccc(Br)cc1 [Ex. 6 (CR451), N-p-bromo-carbobenzoxy-L-tryptophane] | mg/kg | 185 |

====

Each record here notes measured Antispastic activity ED50.
Tested on: transit through the stomach and intestine
Assay: Anti-spastic activity, vegetable carbon (charcoal) test, rate of transit through the stomach and intestine
Format: in vivo, mice
Details: charcoal after two hours; orally (later Table 3); 120 min
Structures can show the parent of a compound that is named as a salt.
VALUE_TYPE: Antispastic activity ED50 (mg/kg)

| MOLECULE | TGT | VALUE_TYPE | OP | RESULT_VALUE |
| --- | --- | --- | --- | --- |
| O=C(N[C@@H](Cc1c[nH]c2ccccc12)C(=O)O)c1ccc(Cl)cc1 [CR 501 aluminium salt] | transit through the stomach and intestine | Antispastic activity ED50 | = | 270 |
| Cc1ccc(C(=O)N[C@@H](Cc2c[nH]c3ccccc23)C(=O)O)cc1 [CR 510 - Calcium salt] | transit through the stomach and intestine | Antispastic activity ED50 | = | 725 |
| O=C(N[C@@H](Cc1c[nH]c2ccccc12)C(=O)O)c1ccc(Cl)cc1 [CR 501 magnesium salt] | transit through the stomach and intestine | Antispastic activity ED50 | = | 278 |
| O=C(N[C@@H](Cc1c[nH]c2ccccc12)C(=O)O)OCc1ccc(Br)cc1 [CR 451 - Calcium salt] | transit through the stomach and intestine | Antispastic activity ED50 | = | 393 |
| O=C(N[C@@H](Cc1c[nH]c2ccccc12)C(=O)O)OCc1ccc([N+](=O)[O-])cc1 [CR 438 - Calcium salt] | transit through the stomach and intestine | Antispastic activity ED50 | > | 1000 |
